target.or.test.system: Neuropeptide S receptor (Homo sapiens) (UniProt Q6W5P4)
Sequence (Q6W5P4 whole entry, looked up): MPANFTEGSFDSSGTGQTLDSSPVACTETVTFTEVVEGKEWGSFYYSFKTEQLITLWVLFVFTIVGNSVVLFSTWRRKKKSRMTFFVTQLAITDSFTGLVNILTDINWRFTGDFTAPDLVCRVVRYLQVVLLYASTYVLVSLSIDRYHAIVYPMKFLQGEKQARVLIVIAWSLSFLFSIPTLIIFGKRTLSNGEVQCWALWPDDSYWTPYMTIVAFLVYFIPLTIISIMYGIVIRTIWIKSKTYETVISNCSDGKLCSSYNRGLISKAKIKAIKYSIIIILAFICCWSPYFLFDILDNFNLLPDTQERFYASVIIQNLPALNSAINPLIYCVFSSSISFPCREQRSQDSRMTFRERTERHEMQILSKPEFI
test.description: qHTS Assay for Antagonists of the Neuropeptide S Receptor: cAMP Signal Transduction; also: nearly all actives have a fitted effect of over 50% in size
assay.setup: CHO-NPSR cells, cAMP TR-FRET, antagonist mode; series mostly up to 38.3 µM
The whole screen tested about 220,000 compounds, of which about 2,300 (1%) were called active. Roughly 6% stayed inconclusive and do not appear here. Calls follow the shape of the dose curve; as a rule, active = well fitted inhibition curve with a large enough effect; inconclusive = small, poorly fitted or top-dose-only effect, or effect the other way; inactive = no such curve, though single readings can be large or run the other way. This is one part of a sample in which actives are shown more often than they occur.
Outcomes: active, inactive

>>> print(df.to_string())
                                    compound  discrete_label
 0  Cc1ccc2nc(-c3cccc(Br)c3)cc(C(=O)Nn3cnnc3)c2c1        inactive
 1  Cn1c(C(=O)O)ccc1S(=O)(=O)N(Cc1ccccc1)Cc1ccccc1        inactive
 2                 S=c1[nH]c2ccccc2c2ccccc12        inactive
 3                 S=C(NCCc1ccccc1)Nc1ccccc1        inactive
 4  COc1ccc(C2/C=C\CN(S(=O)(=O)c3cccs3)CC(=O)N2Cc2ccc(F)cc2)cc1 (stereo unspecified)        inactive
 5                 CN(C)C(=S)Nc1ccc(Br)cc1Cl        inactive
 6  CC(OC(=O)c1ccc(NS(=O)(=O)c2ccc3[nH]c(=O)[nH]c3c2)cc1)C(=O)Nc1cccc(Cl)c1Cl (stereo unspecified)        inactive
 7              CCOC(=O)NNc1cc(C(F)(F)F)ccn1        inactive
 8  CCCc1nc2c(C)cc(-c3nc4ccccc4n3C)cc2n1Cc1ccc(-c2ccccc2C(=O)O)cc1          active
 9  CCOC(=O)c1cc(NC(=O)c2ccc(Cl)cc2)c(=O)oc1-c1ccccc1        inactive
10  CCCCCCCCCCCCC(NC(C)=O)(C(=O)OCC)C(=O)OCC        inactive
